tested-system: Hepatocyte nuclear factor 6 (Homo sapiens)
experimental-protocol: ATG_HNF6_CIS: Attagene CIS-FACTORIAL HepG2 Assay for human Hepatocyte Nuclear Factor 6 (HNF6) (AID 2282952)
condition-summary: HepG2 Attagene cis-factorial HNF6 reporter transcription; actives raise or lower the signal
Active and inactive are the calls of the source. The calls were made as follows: active = hit-call score of the fitted dose curve at least 0.9, where 1 is the maximum; inactive = score below 0.9.
Choose one outcome from this list and give only that: label 1 (active), label 0 (inactive)

The examples below pair each entry with its known result.
[[record]]
compound = "COC(=O)c1ccc(C(=O)OC)c(C(=O)OC)c1"
tested_system = "Hepatocyte nuclear factor 6 (Homo sapiens)"
category = "label 0"

[[record]]
compound = "O=C(Nc1ccccc1)c1cc(Cl)ccc1O"
tested_system = "Hepatocyte nuclear factor 6 (Homo sapiens)"
category = "label 0"

[[record]]
compound = "Cc1cc(C)n(CO)n1"
tested_system = "Hepatocyte nuclear factor 6 (Homo sapiens)"
category = "label 0"

[[record]]
compound = "CCCCC(=O)O"
tested_system = "Hepatocyte nuclear factor 6 (Homo sapiens)"
category = "label 0"

[[record]]
compound = "CCN1CCCC1=O"
tested_system = "Hepatocyte nuclear factor 6 (Homo sapiens)"
category = "label 0"


# next compound below
Ask: Query: recorded result category for CCCSSCCC in this test
Result: label 0

Data provenance is PubChem BioAssay (EPA / NIEHS).
